- target.of.assay: Cholinesterase (Equus caballus, UniProt P81908)
- Sequence (P81908 whole entry): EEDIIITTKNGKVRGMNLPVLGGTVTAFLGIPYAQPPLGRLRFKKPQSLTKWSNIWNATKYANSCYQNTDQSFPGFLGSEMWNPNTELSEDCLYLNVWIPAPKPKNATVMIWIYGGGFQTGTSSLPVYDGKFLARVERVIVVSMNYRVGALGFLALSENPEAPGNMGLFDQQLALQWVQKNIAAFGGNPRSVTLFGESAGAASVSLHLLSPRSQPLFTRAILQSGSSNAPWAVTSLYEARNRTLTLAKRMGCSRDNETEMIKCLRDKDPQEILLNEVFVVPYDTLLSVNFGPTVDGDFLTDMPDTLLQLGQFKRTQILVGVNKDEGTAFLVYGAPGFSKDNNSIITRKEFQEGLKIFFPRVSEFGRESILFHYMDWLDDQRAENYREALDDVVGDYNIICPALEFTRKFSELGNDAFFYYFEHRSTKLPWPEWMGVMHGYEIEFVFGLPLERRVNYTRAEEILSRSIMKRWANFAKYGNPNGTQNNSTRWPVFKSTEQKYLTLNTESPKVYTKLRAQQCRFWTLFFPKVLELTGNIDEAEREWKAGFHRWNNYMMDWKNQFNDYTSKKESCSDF
property.measured: IC50 (µM)
Write the value in µM as a bare number.

> print(dat)
                                   molecule  property.measured  units.of.measure  measured.number
1  CCOP(=O)(OCC)Oc1ccc(Cc2cc3ccccc3oc2=O)cc1               IC50                µM             30.2
2  CCOP(=O)(OCC)Oc1cccc2oc(=O)c(Cc3ccccc3)cc12               IC50                µM            0.363
3  CCCCOP(=O)(OCCCC)Oc1c(C(CC(C)=O)c2ccccc2)c(=O)oc2ccccc12 (racemic)               IC50                µM             1.52
4           O=c1oc2cccc(O)c2cc1Cc1ccc(O)cc1               IC50                µM               32
5  CCOP(=O)(OCC)Oc1c(C(CC(C)=O)c2ccccc2)c(=O)oc2ccccc12 (racemic)               IC50                µM             11.2

The recorded IC50 for CCOP(=S)(OCC)Oc1ccc(Cc2cc3ccccc3oc2=O)cc1 is 53

The recorded IC50 for O=c1oc2ccccc2cc1Cc1ccc(O)cc1 is 51.2

The recorded IC50 for CCS(=O)(=O)Oc1cccc2ccccc12 is 71.5

The recorded IC50 for CCOP(=O)(OCC)Oc1cccc2ccccc12 is 54

src = ChEMBL document CHEMBL4622866
